experimental.system: Triple specificity protein phosphatase PtpB (Mycobacterium tuberculosis (strain ATCC 25618 / H37Rv)) (UniProt I6WXK4)
Sequence (I6WXK4 whole entry): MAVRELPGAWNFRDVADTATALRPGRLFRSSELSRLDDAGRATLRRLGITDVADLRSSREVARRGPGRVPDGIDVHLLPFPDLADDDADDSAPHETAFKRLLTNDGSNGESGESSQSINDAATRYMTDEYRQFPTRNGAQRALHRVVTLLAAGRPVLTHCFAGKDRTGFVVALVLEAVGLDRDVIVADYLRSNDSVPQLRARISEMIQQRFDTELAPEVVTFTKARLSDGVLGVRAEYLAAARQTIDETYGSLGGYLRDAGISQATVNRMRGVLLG
assay.info: Inhibition of Mycobacterium tuberculosis H37Rv ptpB expressed in Escherichia coli BL21(DE3) at 50 uM using pNPP as substrate preincubated for 10 mins followed by substrate addition and measured for 5 mins by spectrophotometer analysis relative to control
condition.context: time 15.0 min
property: inhibition (%)
Value expressed in %; do not type the unit.

Solved cases (4 shown):
1) CCCC[C@@H](C(=O)O)N1C(=O)/C(=C/c2ccc(-c3cccc(C(F)(F)F)c3)cc2)SC1=S ... 104
2) CCCC[C@@H](C(=O)O)N1C(=O)/C(=C/c2ccc(-c3cccc(Cl)c3)cc2)SC1=S ... 102
3) CCCC[C@@H](C(=O)O)N1C(=O)/C(=C/c2ccc(-c3ccc(OC)cc3)cc2)SC1=S ... 99.4
4) O=C(O)[C@H](C1CCCCC1)N1C(=O)/C(=C/c2ccc(-c3cccc(Cl)c3)cc2)SC1=S ... 106

Moving on to the next molecule.
Entry under review: `CCCC[C@@H](C(=O)O)N1C(=O)/C(=C/c2ccc(-c3ccc(Cl)cc3)cc2)SC1=S` . Reported inhibition?
98.9
